Tested on: MDA-MB-231 breast
METHOD_SUMMARY: NCI-60 one-dose screen, 48 h
CONDITION_SET: 10 µM
Compounds without any hit were thinned out: in the full panel of roughly 83,000, 20% have a hit. Calls of active or inactive are those of the source. The calls were made as follows: active = growth percent below 10; inactive = the rest.
One label from this list, please: 1 (yes) for active, 0 (no) for inactive

query: Recorded call for C/C=C/C1=CN2C(=O)c3cc(OC4OC(C)C(NC)C(C)(O)C4O)c(C)c(O)c3N=C[C@@H]2C1 (stereo not given in full) ?
result: 1 (yes)

query: Would you mind doing Cc1nc2n(c(=O)c1CCN1CCC(c3noc4cc(F)ccc34)CC1)CCC[C@@H]2O as well?
result: 0 (no)

query: Would you mind doing O=C1CSC(=S)N1/N=C/c1ccc(Cl)s1 as well?
result: 0 (no)

query: Would you mind doing CC(C)(O)CCl as well?
result: 0 (no)

query: Would you mind doing CCOC(=O)CN(c1sc(C)c(C)c1C(=O)OCC)S(=O)(=O)c1ccc(C)cc1 as well?
result: 0 (no)

query: Would you mind doing CN1C(=O)C2(Nc3cc(Cl)ccc3S2)c2cc(Cl)ccc21 (stereo not given) as well?
result: 0 (no)

query: Would you mind doing COc1cc2cc(Oc3ccc(NC(=O)c4ccc(Cl)c(C(F)(F)F)c4)cc3)c(C)nc2cc1OC as well?
result: 0 (no)

query: Would you mind doing CCN(CC)CCCC(Nc1c2ccc(Cl)cc2nc2ccc(OC)cc12)c1ccc(F)cc1 (stereo not given) as well?
result: 1 (yes)

query: Would you mind doing CCNCC(=O)Nc1ccc(C(=O)OCC)cc1 as well?
result: 0 (no)

query: Would you mind doing COc1ccc(-c2cc(-c3ccc(OC)c(OC)c3)nc(SCCCC(=O)NO)n2)cc1 as well?
result: 1 (yes)

====

Tested on: OVCAR-4 ovarian
METHOD_SUMMARY: NCI-60 one-dose screen, 48 h (100 = growth as untreated, 0 = no growth, -100 = all killed)
CONDITION_SET: 10 µM
About 83,000 compounds went through this panel and 20% of them were active in at least one assay; those are over-represented in the sample as a whole.
MEASUREMENT_NAME: growth (%)
Numbers only, in %.

{"MOLECULE": "CC[C@@H](C(=O)[C@@H](C)[C@@H](O)[C@H](C)[C@@H]1O[C@@H]([C@@H](CC)C(=O)N(CC)CC)CC[C@@H]1C)C1O[C@]2(C=CC(=O)[C@]3(CC[C@@](C)([C@H]4CC[C@](O)(CC)[C@H](C)O4)O3)O2)[C@H](C)C[C@@H]1C (some centres undefined)", "growth [%]": 34.3}
{"MOLECULE": "O=c1[nH]c(=O)n(C2C[C@H](O)[C@@H](CO)O2)cc1C(F)(F)F (some centres undefined)", "growth [%]": 114}
{"MOLECULE": "COc1ccc(/C(C#N)=C/c2cccc(OC)c2OC)cc1", "growth [%]": 98.8}

As a next step, examine the molecule that follows.
query: growth lookup needed for Cc1nc2n(c(=O)c1CCN1CCC(c3noc4cc(F)ccc34)CC1)CCC[C@@H]2O , thanks.
result: 105

====

System: UACC-62 melanoma
METHOD_SUMMARY: NCI-60 one-dose screen, 48 h (100 = growth as untreated, 0 = no growth, -100 = all killed)
CONDITION_SET: 10 µM
This is part of a sample that, as a whole, favours compounds with a hit. Of some 83,000 tested, about 20% had one in any assay.
For each entry below, report its growth value.
One number for each entry, in %.

{"COMPOUND": "CC(=O)OC1C=CC(OC(C)=O)O1 (stereo not given)", "TESTED_TARGET": "UACC-62 melanoma", "RESULT_VALUE": 84.4}

Hi, could you look up growth for each item in my list?
1. COc1cc(-c2nn(-c3cccc(NC(=O)CN4CCOCC4)c3)cc2-c2cccnc2)ccc1Cl
2. COc1cc2c(cc1NC(=O)C(F)(F)F)-c1ccc(NC(=O)C(F)(F)F)cc1C2
3. CCOC(=O)C(C)(c1ccccc1)c1ccccc1
4. Nc1ccccc1NC(=O)c1ccc(CCCC(=O)Nc2ccc(C3CC3N)cc2)cc1 (stereo not given)
5. COc1ccc2nc(-c3ccc(Cl)cc3)cc(-c3nnc(SC/C(=N\O)c4ccccc4)n3-c3ccccc3)c2c1
6. O=C(Nc1ccc(NS(=O)(=O)c2ccc(F)cc2)cc1)C12CC3CC(CC(C3)C1)C2
7. CC(=O)OC1CC2C(C)(C)CCC[C@]2(C)C2=C1C(O)=C(C(C)C)C(=O)C2=O (stereo not given in full)
8. O=C1/C(=C/c2cccc(F)c2)Cc2ccccc21

result:
1. 61.4
2. 92
3. 102
4. -24.8
5. 89.4
6. 92.4
7. -60.1
8. 99.2

query: growth lookup needed for O=C(O)Cc1ccc(O)c(O)c1 , thanks.
result: 105
